target: DRB4*0101 (Homo sapiens, UniProt P01903+P13762, G164S); test: biochemical
OUTCOME_MEASURE: IC50 (nM)
Output spec: scalar in nM, unitless text.

A selection of reference data follows.
CC[C@H](C)[C@H](NC(=O)[C@@H](N)CCSC)C(=O)N[C@H](C(=O)N1CCC[C@H]1C(=O)N[C@@H](CCCCN)C(=O)N[C@@H](CO)C(=O)N[C@@H](CC(C)C)C(=O)N[C@@H](C)C(=O)NCC(=O)N1CCC[C@H]1C(=O)N[C@H](C(=O)N[C@@H](CO)C(=O)N[C@@H](CCC(N)=O)C(=O)N[C@@H](Cc1c[nH]cn1)C(=O)N[C@@H](CC(N)=O)C(=O)O)[C@@H](C)CC)[C@@H](C)CC 1090
CC[C@H](C)[C@H](NC(=O)[C@H](CC(C)C)NC(=O)[C@H](CCCCN)NC(=O)CN)C(=O)N[C@@H](Cc1c[nH]cn1)C(=O)N[C@@H](CCC(=O)O)C(=O)N[C@@H](Cc1c[nH]c2ccccc12)C(=O)N[C@@H](CS)C(=O)N[C@@H](CS)C(=O)N[C@@H](CCCNC(=N)N)C(=O)N[C@@H](CO)C(=O)N[C@@H](CS)C(=O)N[C@H](C(=O)N[C@@H](CC(C)C)C(=O)N1CCC[C@H]1C(=O)O)[C@@H](C)O 2040

Documented IC50 of CC[C@H](C)[C@H](NC(=O)[C@H](CC(N)=O)NC(=O)CNC(=O)[C@@H](NC(=O)CNC(=O)[C@H](CC(N)=O)NC(=O)[C@@H](N)CO)[C@@H](C)O)C(=O)N[C@H](C(=O)N[C@@H](CO)C(=O)N[C@@H](CO)C(=O)N[C@H](C(=O)N[C@@H](CC(N)=O)C(=O)N[C@@H](CCSC)C(=O)N[C@H](C(=O)N[C@@H](CO)C(=O)N[C@@H](CCCNC(=N)N)C(=O)N[C@@H](CC(C)C)C(=O)O)C(C)C)C(C)C)C(C)C : 60

----------
biological target: DRB5*0101 (Homo sapiens, UniProt P01903+Q30154); experiment: biochemical
The following compounds are shown together with reported IC50 values.
Output spec: scalar in µM, unitless text.

CC[C@H](C)[C@H](NC(=O)[C@@H](NC(=O)[C@H](CC(=O)O)NC(=O)[C@H](CCSC)NC(=O)[C@@H](NC(=O)[C@@H](NC(=O)CNC(=O)[C@H](CCCCN)NC(=O)[C@@H]1CCCN1C(=O)[C@@H](NC(=O)[C@@H]1CCCN1C(=O)[C@H](CCCNC(=N)N)NC(=O)[C@H](CCC(N)=O)NC(=O)[C@@H](NC(=O)[C@H](CCCCN)NC(=O)[C@@H](NC(=O)[C@@H](N)C(C)C)C(C)C)C(C)C)[C@@H](C)O)[C@@H](C)O)C(C)C)[C@@H](C)CC)C(=O)O 0.084

Then there is this compound:
Documented IC50 of CC[C@H](C)[C@H](NC(=O)CNC(=O)[C@H](CO)NC(=O)[C@H](CCCCN)NC(=O)[C@H](CCCCN)NC(=O)[C@H](Cc1ccc(O)cc1)NC(=O)[C@H](CC(C)C)NC(=O)[C@H](CC(=O)O)NC(=O)[C@H](Cc1ccccc1)NC(=O)[C@H](CCC(=O)O)NC(=O)[C@@H](N)CCCCN)C(=O)N[C@H](C(=O)N[C@@H](CCC(=O)O)C(=O)N[C@H](C(=O)N[C@@H](CC(=O)O)C(=O)N[C@@H](CCCNC(=N)N)C(=O)N[C@H](C(=O)O)[C@@H](C)O)C(C)C)[C@@H](C)O : 10.1

----------
target: DRB1*1302 (Homo sapiens, UniProt P01903+P01911, A100E/A169T/K41T/L162R/M171V/P40S/Q125H/Q178H/Q39Y/Q99D/R42S/S66N/T262R/V115G/W38E/Y61H); assay: biochemical; format: binding; conditions: competitive inhibition of radiolabeled standard peptide; DRB1*1302; read-out: Binding Affinity (nM) DRB1*1302
Sequence (P01903 26-254 limits assumed, other chains not shown): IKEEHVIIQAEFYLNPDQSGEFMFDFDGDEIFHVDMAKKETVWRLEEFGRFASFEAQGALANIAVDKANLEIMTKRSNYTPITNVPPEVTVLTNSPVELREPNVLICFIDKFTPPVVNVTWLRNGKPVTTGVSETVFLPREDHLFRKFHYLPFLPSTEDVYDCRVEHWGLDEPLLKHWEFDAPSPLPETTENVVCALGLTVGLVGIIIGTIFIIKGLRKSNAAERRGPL
OUTCOME_MEASURE: IC50 (nM)
Output spec: scalar in nM, unitless text.

Documented IC50 of CC(C)C[C@H](NC(=O)[C@H](C)NC(=O)[C@H](CC(C)C)NC(=O)[C@@H]1CCCN1)C(=O)N[C@@H](CCCCN)C(=O)N[C@@H](CCC(=O)O)C(=O)N[C@@H](Cc1ccccc1)C(=O)N[C@@H](CCCCN)C(=O)N[C@@H](CC(=O)O)C(=O)N[C@@H](Cc1ccccc1)C(=O)N[C@@H](C)C(=O)N[C@@H](C)C(=O)NCC(=O)N[C@@H](CCCNC(=N)N)C(=O)N[C@@H](CCCCN)C(=O)O : 19600

----------
target: DRB1*1101 (Homo sapiens, UniProt P01903+P01911, A100R/A169T/A87E/I96F/K41T/L162R/M171V/P40S/Q125H/Q178H/Q39Y/Q99D/R42S/S66Y/T262R/V115G/W38E); assay: biochemical
Sequence (P01903 26-254, other chains not shown): as the sequence (P01903 26-254 limits assumed, other chains not shown) above
The following molecules are shown together with reported pIC50 values.
Expect pIC50 as a plain number equal to -log10 of the molar concentration.

Documented pIC50 of CC[C@H](C)[C@H](NC(=O)[C@H](CC(=O)O)NC(=O)CNC(=O)[C@@H](NC(=O)[C@@H](NC(=O)[C@@H](NC(=O)[C@@H](NC(=O)[C@H](CC(C)C)NC(=O)[C@@H](N)CCCCN)[C@@H](C)O)C(C)C)C(C)C)C(C)C)C(=O)N[C@H](C(=O)NCC(=O)N[C@H](C(=O)N[C@@H](CC(C)C)C(=O)N[C@@H](CCC(=O)O)C(=O)N[C@@H](CCC(N)=O)C(=O)O)C(C)C)[C@@H](C)CC [NS1 85-99] : 6.09

Documented pIC50 of CSCC[C@H](NC(=O)CNC(=O)[C@H](CCCCN)NC(=O)[C@H](CC(C)C)NC(=O)[C@H](CCC(=O)O)NC(=O)[C@H](CC(C)C)NC(=O)[C@H](CCCCN)NC(=O)[C@H](CC(=O)O)NC(=O)[C@H](CCSC)NC(=O)[C@H](CCCCN)NC(=O)[C@H](CC(C)C)NC(=O)[C@H](CCCNC(=N)N)NC(=O)[C@H](CS)NC(=O)[C@H](CCCCN)NC(=O)[C@@H](N)CC(C)C)C(=O)O [Envelope 281-295] : 5.48

Documented pIC50 of CC(C)C[C@H](NC(=O)[C@H](C)NC(=O)[C@H](CC(C)C)NC(=O)[C@@H]1CCCN1)C(=O)N[C@@H](CCCCN)C(=O)N[C@@H](CCC(=O)O)C(=O)N[C@@H](Cc1ccccc1)C(=O)N[C@@H](CCCCN)C(=O)N[C@@H](CC(=O)O)C(=O)N[C@@H](Cc1ccccc1)C(=O)N[C@@H](C)C(=O)N[C@@H](C)C(=O)NCC(=O)N[C@@H](CCCNC(=N)N)C(=O)N[C@@H](CCCCN)C(=O)O [NS3 605-619] : 5.05

Documented pIC50 of CC(C)C[C@H](NC(=O)[C@H](C)NC(=O)[C@H](CCC(=O)O)NC(=O)[C@H](Cc1ccccc1)NC(=O)[C@H](CCC(=O)O)NC(=O)[C@H](CC(C)C)NC(=O)[C@H](Cc1ccc(O)cc1)NC(=O)[C@H](CCCNC(=N)N)NC(=O)[C@H](C)NC(=O)CNC(=O)[C@H](CC(C)C)NC(=O)[C@@H](N)Cc1c[nH]c2ccccc12)C(=O)NCC(=O)N[C@@H](Cc1ccccc1)C(=O)N[C@@H](CC(C)C)C(=O)N[C@@H](CC(N)=O)C(=O)N[C@@H](CCC(=O)O)C(=O)O [NS5 477-493] : 6.15

Documented pIC50 of CC[C@H](C)[C@H](NC(=O)[C@H](CCCCN)NC(=O)CNC(=O)[C@H](CCC(=O)O)NC(=O)[C@@H](NC(=O)[C@H](CS)NC(=O)[C@H](CC(C)C)NC(=O)[C@H](CCCCN)NC(=O)[C@H](CCCNC(=N)N)NC(=O)[C@H](CC(C)C)NC(=O)[C@@H](NC(=O)[C@H](C)NC(=O)[C@H](CC(C)C)NC(=O)[C@H](CCC(N)=O)NC(=O)[C@@H](N)[C@@H](C)O)[C@@H](C)O)[C@@H](C)CC)C(=O)O [Envelope 51-65] : 7.40

----------
The following compounds are shown together with reported pIC50 values.
target: DRB1*0401 (Homo sapiens, UniProt P01903+P01911, A100K/A169T/F76Y/I96L/K127E/L162R/M171V/N62H/P40V/Q125Y/R42H/S133A/S149N/S66Y/V115G/V209L/W38E); experiment: biochemical
Expect pIC50 as a plain number equal to -log10 of the molar concentration.

Documented pIC50 of CC[C@H](C)[C@H](NC(=O)[C@H](CCCCN)NC(=O)CNC(=O)[C@H](CCC(=O)O)NC(=O)[C@@H](NC(=O)[C@H](CS)NC(=O)[C@H](CC(C)C)NC(=O)[C@H](CCCCN)NC(=O)[C@H](CCCNC(=N)N)NC(=O)[C@H](CC(C)C)NC(=O)[C@@H](NC(=O)[C@H](C)NC(=O)[C@H](CC(C)C)NC(=O)[C@H](CCC(N)=O)NC(=O)[C@@H](N)[C@@H](C)O)[C@@H](C)O)[C@@H](C)CC)C(=O)O : 5.67

Documented pIC50 of CC[C@H](C)[C@H](NC(=O)[C@H](CC(=O)O)NC(=O)[C@@H](N)CC(C)C)C(=O)N[C@@H](CCC(=O)O)C(=O)N[C@@H](CC(C)C)C(=O)N[C@@H](CCC(N)=O)C(=O)N[C@@H](CCCCN)C(=O)N[C@H](C(=O)N[C@@H](CCC(=O)O)C(=O)N[C@@H](C)C(=O)N[C@H](C(=O)N[C@@H](CCC(N)=O)C(=O)N[C@@H](CC(C)C)C(=O)N[C@@H](C)C(=O)N[C@H](C(=O)O)[C@@H](C)O)[C@@H](C)O)[C@@H](C)O : 6.46

Documented pIC50 of CC[C@H](C)[C@H](NC(=O)[C@H](CCC(=O)O)NC(=O)CNC(=O)[C@@H](NC(=O)[C@@H](NC(=O)[C@@H](NC(=O)[C@H](CCC(N)=O)NC(=O)[C@H](Cc1ccccc1)NC(=O)[C@@H](NC(=O)CNC(=O)[C@@H]1CCCN1C(=O)[C@H](CCSC)NC(=O)[C@@H](NC(=O)[C@H](CCC(N)=O)NC(=O)[C@@H](N)Cc1ccccc1)[C@@H](C)O)[C@@H](C)O)[C@@H](C)O)[C@@H](C)O)[C@@H](C)O)C(=O)O : 6.65
